# Tested on: Streptococcus pneumoniae ATCC 49619
# protocol: Broth microdilution MIC, S. pneumoniae ATCC 49619
# Assay type: cell-based
# condition: ATCC49619, broth microdilution, 37° C., 20 hours, read-out: MIC S. pneumoniae ATCC 49619
testReadout: MIC

Ask: Entry Cl.O=C(O)c1ccc(OCCn2ncc3nc(NCc4ccc(Cl)c(Cl)c4)[nH]c(=O)c32)cn1 [Compound 175] has what MIC?
Result: > 64 µg/mL

Ask: Consider the compound Cn1ncc2nc(NCc3cnccn3)[nH]c(=O)c21 [Compound 12] and give its measured MIC.
Result: > 64 µg/mL

Ask: Consider the compound O=c1[nH]c(NCc2ccc(Cl)c(Cl)c2)nc2c(-c3ncco3)nn(CCOCCO)c12 [Compound 50] and give its measured MIC.
Result: > 64 µg/mL

Ask: Fill blank: measured MIC of the compound O=c1[nH]c(NCc2ccc(Cl)c(Cl)c2)nc2cn(Cc3ccccc3)nc12 [Compound 129] is ____.
Result: > 64 µg/mL

Attribution: patent US10723741B1
